# Experimental System: Beta-lactamase (Escherichia coli (strain K12)) (UniProt P00811)
# Sequence (P00811 whole entry, looked up): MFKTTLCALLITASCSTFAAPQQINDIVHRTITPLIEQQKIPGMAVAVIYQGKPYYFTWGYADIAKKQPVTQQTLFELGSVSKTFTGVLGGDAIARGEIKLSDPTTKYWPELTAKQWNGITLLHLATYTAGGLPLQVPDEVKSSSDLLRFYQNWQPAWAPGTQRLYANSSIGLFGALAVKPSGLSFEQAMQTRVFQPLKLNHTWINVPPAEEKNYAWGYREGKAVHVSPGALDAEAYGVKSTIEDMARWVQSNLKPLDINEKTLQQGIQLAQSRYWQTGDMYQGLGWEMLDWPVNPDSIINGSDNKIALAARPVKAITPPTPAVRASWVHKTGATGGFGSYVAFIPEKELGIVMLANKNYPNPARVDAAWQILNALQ
# Experiment Notes: qHTS Inhibitors of AmpC Beta-Lactamase (assay without detergent); also: nearly all actives have a fitted effect of over 20% in size; also: potency is read from the fitted curve at half-maximal effect
# Experimental Conditions: AmpC nitrocefin hydrolysis, absorbance 480 nm, 0.0001% Triton; series mostly up to 57.1 µM
In all, about 330,000 compounds went through this assay and about 1,700 (0.52%) were called active. The sample holds actives, similar compounds and a random draw of the others, so the mix is not that of the screen.
Recorded Endpoint: Potency

Take a look at these entries with their results.
CCOc1c2ccc(C(=O)NCc3ccc(OC(F)(F)F)cc3)cc2nn1C = inactive
COc1ccccc1CCNC(=O)C(=O)NCCC1CCCCN1S(=O)(=O)c1cccs1 (configuration not stated) = inactive
O=C(c1cc2cc(Br)cc(Br)c2oc1=O)N1CCOCC1 = inactive
CCOc1c2ccc(C(=O)NCc3ccc4c(c3)OCO4)cc2nn1C = 0.316 µM (active)
O=S(=O)(Nc1cccc(-c2ccc(N3CCOCC3)nn2)c1)c1ccc(Cl)c(Cl)c1 = inactive
Cn1cccc1Cc1nnc(SCC(=O)NCc2ccc3c(c2)OCO3)n1CCc1ccccc1 = inactive

Potency measured on `Nc1c(N(CCCO)C(=O)C2CCCC2)c(=O)[nH]c(=O)n1Cc1ccccc1` = inactive
